EXPERIMENT SUMMARY: amyloid nucleation score (Sup35N fusion, yeast selection) (log enrichment); library NNK3; higher = more nucleation; inactive = no reads after selection;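 also: zero at mode of non-aggregating sequences after 7 days selection at 30°C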
MEASURED PARAMETER: amyloid nucleation score

> print(dat)
               substance    result
 1   RWSVLILNPPISKKHPDDK     0.345
 2                DDVLYS     -0.19
 3  RSLAEGFYGAVPEGSVRFRN  inactive
 4                VFSIND  inactive
 5           EDPGLYFLRVS  inactive
 6  RWAKSEAVLLVFGEFSLVGW  inactive
 7   VYCLAECYRIMRYAPFQVV  inactive
 8          CSTCISTNFSPY  inactive
 9               TIATLRF  inactive
10   GNVDVAHCDWCKGSTCMLN      2.64
11  TNLLRTGNASSWMFKRGVEC  inactive
12                FWWLEI  inactive
13     AVVIGDDEVVSDYCLLL     0.377
14  LNIRGSFCFYGSWIVADFHM     0.336

###

EXPERIMENT SUMMARY: amyloid nucleation score (Sup35N fusion, yeast selection) (log enrichment); library NNK3; higher = more nucleation; inactive = no reads after selection
MEASURED PARAMETER: amyloid nucleation score

> print(dat)
               substance        measured.parameter    result
 1  ANLADKILFFGSPCRVMHPV  amyloid nucleation score  inactive
 2               GVLREEL  amyloid nucleation score  inactive
 3  GSYRWAVGGKDWGHWDRCLA  amyloid nucleation score  inactive
 4  RAKVISSWSLPGSSVKSYPA  amyloid nucleation score  inactive
 5              VYFRFYNL  amyloid nucleation score      1.36
 6  CDWRESVFRRAVTLPVALWM  amyloid nucleation score  inactive
 7  DYNDCIKISIFLLYSPLIWC  amyloid nucleation score      1.79
 8       HPSTSTYRQRLPNCY  amyloid nucleation score  inactive
 9  GWKFMREYSKRIGSSSPVVY  amyloid nucleation score  inactive
10  AEVPSFECFTVPVFLRSIAV  amyloid nucleation score  inactive
11  SWRRWSPCLIEVWHMFSLVT  amyloid nucleation score  inactive
12     YWFDSPPSFRAYPCWNR  amyloid nucleation score  inactive
13  DFARGYGDNALVFYLYGLMY  amyloid nucleation score    -0.684
14  YNSRDDSIKFFFVRSCILTY  amyloid nucleation score  inactive
15  MCEMVFTWDSWLLRRIRQDW  amyloid nucleation score       1.5
16  SFTYTRQSGSNLEAVGTFPH  amyloid nucleation score    -0.373
17     WNGKGLSSGTLSISRKT  amyloid nucleation score  inactive
18  MSVIIAIAMYRLFRDRTHPL  amyloid nucleation score  inactive
19  NRGNSIRRDNWFRVILRTCH  amyloid nucleation score  inactive
20  VSETMWMSFLTVSFELRVDG  amyloid nucleation score  inactive
21       YFLRREQLYNLRKGK  amyloid nucleation score  inactive
22  SISVNVCRWTRCLGTQLLSV  amyloid nucleation score  inactive
23  LLLSEREGIYVVWVWCRWPV  amyloid nucleation score  inactive
24  HWNCGVTNSGEFFALAVGFI  amyloid nucleation score  inactive
25                TGPMGI  amyloid nucleation score  inactive
26     PGVLLVWLSYSGSRLLS  amyloid nucleation score  inactive
27           SCFCQILPFRV  amyloid nucleation score  inactive
28     INPMGITDSVCSTAASG  amyloid nucleation score  inactive
29  VFMKNLNKIDILTSGLDHIY  amyloid nucleation score  inactive
30  CCTIIRAYVVRELAHINNSW  amyloid nucleation score  inactive
